All values here come from PubChem BioAssay (NCI).

Test system: 786-0 renal
Experiment: NCI-60 one-dose screen, 48 h (100 = growth as untreated, 0 = no growth, -100 = all killed)
Conditions: 10 µM unless noted
Compounds without any hit were thinned out: in the full panel of roughly 83,000, 20% have a hit.
# if measured growth < 90%: Fulfilled  # else: Not fulfilled

COc1ccc(-c2n[nH]nc2-c2cc(OC)c3c(c2)OCO3)cc1
Fulfilled
Nc1ccc(C(OC(=O)c2cc3ccccc3c(Cc3c(O)c(C(=O)OC(c4ccc(N)cc4)(c4ccc(N)cc4)c4ccc(N)cc4)cc4ccccc34)c2O)(c2ccc(N)cc2)c2ccc(N)cc2)cc1
Fulfilled
CCOC(=O)C(Nc1ccccc1)C(=O)OCC
Not fulfilled
Cc1ccc(NC(=O)c2nc(S(C)(=O)=O)oc2-c2ccc(F)cc2)cc1Nc1ccc2ncn(C)c(=O)c2c1
Fulfilled
Cc1nn(-c2ccc(Cl)cc2)c(=O)n1CCN1CCOCC1
Fulfilled
C=CCn1c(SCC(=O)Nc2ccc(/C(C)=N\O)cc2)nnc1-c1cc(-c2ccc(Cl)cc2)nc2ccccc12
Fulfilled
COc1cc2c(cc1I)-c1c(cc(OC)c(OC)c1OC)CC[C@@H]2NC(C)=O
Fulfilled
CC(C)(C)NC(=O)C(OC(=O)C1CCc2cc(F)ccc2O1)c1ccccc1Cl (configuration not stated)
Not fulfilled
O=c1cc(-c2ccc3c(c2)OCCO3)oc2cc(Cl)ccc12
Fulfilled
COC1CC(N)C2OC(c3ccccc3)OCC2O1 (configuration not stated)
Not fulfilled

Task: In the record for `COc1cc2nccc(Oc3ccc(NC(=O)C4(C(=O)Nc5c(F)cc(F)cc5F)CC4)cc3)c2cc1Oc1ccc(N)cn1` , is growth less than 90%?
Result: Not fulfilled

Task: Input `Cc1nc2n[nH]c(N)c2nc1C` ; condition: growth strictly below 90%. Does it hold?
Result: Not fulfilled

Task: Identify whether the compound `O=C(Cc1ccc(Nc2ccnc(C(F)(F)F)c2)cc1)N/N=C/c1ccccc1O` records growth below 90%.
Result: Fulfilled

Task: Does the reported growth of `O=C(CN1CCN(c2ccccc2)CC1)N1CCN(c2nnc(-c3ccc(Cl)cc3)c(-c3ccc(Cl)cc3)n2)CC1` stay below 90%?
Result: Fulfilled

Task: # strict comparison: is reported growth < 90%? input = `CCCCn1c(C)nc2cc(Nc3nc(Cl)nc4nc[nH]c34)ccc21`
Result: Fulfilled

Task: hey, is growth for `COc1ccc(Nc2ncccc2C(=O)NCc2cn(Cc3cc(OC)cc(OC)c3)nn2)cc1` lower than 90% or not?
Result: Not fulfilled

Task: Bench note: check whether `COc1cc(/C=C/C(=O)c2ccc(NC(=O)CSc3nnc(-c4ccc(Cl)cc4)n3-c3ccccc3)cc2)cc(OC)c1OC` shows growth below 90%
Result: Fulfilled

Task: Quick check: does `CCOc1ccc([C@@H]2[C@@H](Oc3ccccc3)C(=O)N2c2cc(OC)c(OC)c(OC)c2)cc1` have growth under 90%?
Result: Fulfilled

Task: Please check: growth for CC(=O)N1N=C(c2ccc(C)cc2)CC1c1cn(-c2ccccc2)nc1-c1cccc(Nc2ccnc3cc(Cl)ccc23)c1 (configuration not stated) , strictly under 90% or not?
Result: Fulfilled

Task: In plain terms, does COc1ccc(C2=NN(C=O)C(c3ccc(OS(=O)(=O)c4ccc(C)cc4)c(OC)c3)C2)cc1 (configuration not stated) come in under 90% for growth?
Result: Fulfilled

Task: Say whether its growth is strictly beneath 90%. Entry: `CCCc1n(Cc2ccc3ccccc3c2)c2ccccc2[n+]1Cc1ccc2ccccc2c1`
Result: Fulfilled
